// reported TGI for each item listed
Test system: COLO 205 colon
protocol-description: NCI tumour cell line growth inhibition, 48 h

compound | data-value
O=C(O)c1ccc([Se][Se]c2ccc(C(=O)O)cc2)cc1 | 74 µM
Nc1ccn(Cc2ccc(C34CC5CC(CC(C5)C3)C4)c(O)c2)c(=O)n1 | > 100 µM
COc1nc(NC2OCC(OC(C)=O)C(OC(C)=O)C2OC(C)=O)c(N=CC=Nc2c(NC3OCC(OC(C)=O)C(OC(C)=O)C3OC(C)=O)nc(OC)n(C)c2=O)c(=O)n1C (stereo not given) | > 100 µM
C/C(=C\c1ccccc1)C(=O)CCN1CCOCC1 | 31 µM
CN(C)c1ccc(-c2c(C#N)c(S)n(NS(=O)(=O)c3ccccc3)c(=O)c2C#N)cc1 | > 100 µM

Query: Record lookup: for COLO 205 colon, what TGI belongs to `ClCCn1c(CCl)nc2ccc(Cl)cc21` ?
Result: 3.07 µM

Query: Can you handle `O=C(CC(=O)CC(O)(C(F)(F)F)C(F)(F)F)CC(O)(C(F)(F)F)C(F)(F)F` next?
Result: > 10 µM

Query: Same read-out for `O=C1OC(=O)C(c2c[nH]c3ccccc23)=C1c1c[nH]c2ccccc12` ?
Result: > 25 µM

====

This section presents molecules with their documented TGI values.
Test system: NCI-H460 lung
protocol-description: NCI tumour cell line growth inhibition, 48 h
Express the result in µM but write the number alone.

molecule | TGI, µM
CCCN=Cc1cc(Cc2ccc(O)c(C=NCCC)c2)ccc1O | 51.9
CCOC1CC(=O)c2c(Br)sc(Br)c21 (stereo unspecified) | 43.1
ClCCn1c(CCl)nc2ccc(Cl)cc21 | 4.59

Query: For `COc1ccc2nc3cc([N+](=O)[O-])ccc3c(NCCCCCN(C)C)c2c1` , what is its reported TGI?
Result: 1.03

====

Tested on: SK-MEL-2 melanoma
protocol-description: NCI tumour cell line growth inhibition, 48 h
value-type: TGI

molecule | data-value
COc1ccc(-c2cc(=O)c3cc4c(cc3[nH]2)OCO4)c(OC)c1OC | > 100 µM
COc1ccc(N[C@H](CSc2ccc(C)cc2)c2ccc(F)cc2)cc1 | > 100 µM
NC(CSCc1ccccc1)C(=O)O (centres undefined) | > 100 µM
Cc1ccncc1.[O]=[Ge].[O]=[Ge].[O]=[Ge].[O]=[Ge].[O]=[Ge].[O]=[Ge][OH].[O]=[Ge][OH] | > 100 µM

Query: What value of measured TGI is listed for `O=C1/C(=C/c2ccccc2S)N=C(c2ccccc2)N1c1nc2ccc(Sc3ccccc3)cc2[nH]1` ?
Result: 36.2 µM

Query: Query `C/C(N=Nc1nc2ccccc2s1)=C1/C=CC=CN1O` next
Result: > 100 µM

Query: Could you do the same for `O=C1CCC(=Nc2ccc(Cl)cc2)N1C(=O)COc1ccc(OCC(=O)N2C(=O)CSC2=Nc2ccc(Cl)cc2)cc1` , please?
Result: > 100 µM

Query: Next molecule up: `COc1cc(Cl)cc(-c2nn(C(=O)NCCN3CCOCC3)cc2-c2ccncc2)c1`
Result: 44.3 µM

Query: Quick one: `C[n+]1c(-c2ccccc2)cc2/c(=C\c3ccc([N+](=O)[O-])cc3)c3ccccc3n21`
Result: 10.9 µM

Query: What do you get for `Cc1cc(N(CCC#N)S(=O)(=O)c2ccccc2)ccc1/C=C1N=C(/C=C/c2ccccc2)OC\1=O` ?
Result: > 100 µM

Query: What do we get for CC1SC(c2c(Cl)cccc2Cl)N(NC(=O)c2[nH]c3ccc(F)cc3c2-c2ccccc2)C1=O (centres undefined) ?
Result: 15.6 µM

Query: Record: `CCCCCCCCCc1cc(=O)c2ccc(OCc3ccccc3)cc2o1`
Result: > 100 µM

Query: # repeat for `O=c1cc(/C=C/c2ccc(O)c(O)c2)oc(/C=C/c2ccc(O)c(O)c2)c1`
Result: 9.97 µM

Query: Follow-up entry: CCC1=CCC23C(=O)C=CC(=O)C2(C1)C(=O)c1cccc(OC)c1C3=O (centres undefined)
Result: > 100 µM

Query: # iterate: `CCCN=Cc1cc(Cc2ccc(O)c(C=NCCC)c2)ccc1O`
Result: 9.59 µM

Query: Same question for CC(=O)N/N=C1/NN(C(C)=O)C2(S1)C(=O)Nc1ccc(Br)cc12 (centres undefined) please.
Result: > 100 µM

Query: # iterate: `C=C1C(=O)O[C@H]2[C@H]1[C@H](OC(=O)/C(C)=C\C)CC(=C)[C@@H]1[C@H](O)[C@H]3O[C@@]3(C)[C@@]12O`
Result: > 100 µM

Query: // query: CC(=O)OC[C@]1(C(=O)C(O)c2ccoc2)[C@H](C)CC[C@@]23COC(=O)C2=CCC[C@@H]31 (some centres undefined)
Result: > 10 µM

Query: What do you get for `CCN(CC)c1ccc(C(=C2C=CC(=[N+](CC)Cc3cccc(S(=O)(=O)O)c3)C=C2)c2ccc(N(CC)Cc3cccc(S(=O)(=O)O)c3)cc2)cc1` ?
Result: > 92.2 µM

====

System: HCC-2998 colon
protocol-description: NCI tumour cell line growth inhibition, 48 h
value-type: TGI

Solved entries:
compound | data-value
CCCC[C@H](NC(=O)[C@H]1CCCN1C)C(=O)N(C)[C@H](C[C@@H](OC(C)=O)c1nc(C(=O)N[C@@H](Cc2ccccc2)C[C@H](C)C(=O)OCC)cs1)C(C)C | 10.9 µM
Oc1ccc(-c2nnc3sc(-c4ccc(F)cc4)nn23)cc1 | > 100 µM
O=C(c1ccccc1)C1N=NCC1c1ccc([N+](=O)[O-])cc1 (stereo unspecified) | > 100 µM
O=C1C(c2c(O)[nH]c3ccc(S(=O)(=O)O)cc23)=Nc2ccccc21 | > 100 µM
O=Cc1cn(C(=O)c2ccccc2)c2ccccc12 | > 100 µM
N#Cc1nc(-c2cc([N+](=O)[O-])cc([N+](=O)[O-])c2)oc1N | > 10 µM

Query: Need TGI, item `COc1ccccc1NC(=O)C1=C(C)NC(C)=C(C(=O)Nc2ccccc2OC)C1c1ccccc1F`
Result: > 100 µM

Query: Repeat with `COC(=O)[C@]12CC[C@@H](C)[C@H](C)[C@@H]1C1=CC[C@@H]3[C@@]4(C)C[C@@H](OC(C)=O)[C@H](O)[C@@](C)(COC(C)=O)[C@@H]4[C@H](O)C[C@@]3(C)[C@]1(C)CC2`
Result: 4.57 µM

Query: Same question, `O=C(O)[C@@H]1C[C@@H](O)CN1C(=O)OCc1ccccc1` this time
Result: > 100 µM

Query: Now the same for `CN(C)S(=O)(=O)c1ccc(NC(=O)COC(=O)c2ccc(S(=O)(=O)N3CCCCC3)cc2)cc1`
Result: > 100 µM

====

Each entry below lists one item and its recorded TGI value.
Tested on: HOP-92 NSCLC
protocol-description: NCI tumour cell line growth inhibition, 48 h
Give the quantity in µM, number only.

Solved cases (3 shown):
compound | tested-on | measurement-units | data-value
N#Cc1cnc2cc(OC[C@H](O)CO)c(NC(=O)CC3CSSC3)cc2c1Nc1ccc(OCc2cccc(F)c2)c(Cl)c1 | HOP-92 NSCLC | µM | 8.04
Cc1ccccc1OC(C)C(=O)NN1C(=O)CC(=O)N(c2ccc(Cl)cc2)C1=S (centres undefined) | HOP-92 NSCLC | µM | 56.1
CCN(CC)c1ccc(C(=C2C=CC(=[N+](CC)Cc3cccc(S(=O)(=O)O)c3)C=C2)c2ccc(N(CC)Cc3cccc(S(=O)(=O)O)c3)cc2)cc1 | HOP-92 NSCLC | µM | 65.8

Moving on to the next compound.
Query: Quick one: TGI of `ClCCn1c(CCl)nc2ccc(Cl)cc21` ?
Result: 2.63

====

Tested on: OVCAR-8 ovarian
protocol-description: NCI tumour cell line growth inhibition, 48 h
Below, each of the compounds is paired with its reported TGI value.

Past entries and their recorded results:
compound | tested-on | value-type | data-value
ClCCn1c(CCl)nc2ccc(Cl)cc21 | OVCAR-8 ovarian | TGI | 1.6 µM
CNS(=O)(=O)NN(C)S(=O)(=O)c1ccc(F)cc1 | OVCAR-8 ovarian | TGI | > 100 µM
CCCCCCCCCc1cc(=O)c2ccc(OCc3ccccc3)cc2o1 | OVCAR-8 ovarian | TGI | > 100 µM

Query: # input compound: `COC(=O)[C@H](Cc1cn(C)cn1)NC(=O)[C@H](Cc1c[nH]c2ccccc12)NC(=O)Nc1cc(C(F)(F)F)cc(C(F)(F)F)c1` ; wanted: its TGI
Result: > 10 µM

Query: Next: `O=C(Cn1ccc(=O)[nH]c1=O)Nc1ccc(C(=O)O)c(O)c1`
Result: > 100 µM

Query: Would you mind doing `NC(=S)N/N=C(/CC(=O)c1ccccc1)C(=O)Nc1ccc(Cl)c(Cl)c1` as well?
Result: > 100 µM

Query: Same for `COC(=O)NN(C(=O)OC)c1c(-c2ccccc2)nc(SC)n1N`
Result: > 100 µM

Query: Note, next up: `COc1ccc(N[C@H](CSc2ccc(C)cc2)c2ccc(F)cc2)cc1`
Result: > 100 µM

Query: And what about the compound CC1CCCCc2nc3c(c(=O)n21)CCCC3 (stereo not given) ?
Result: > 100 µM

Query: Please answer likewise for COC1(C(=O)N[C@@H](C)c2ccc(-n3cc(F)cn3)nc2)CCC(c2nc(C)cc(Nc3cc(C)[nH]n3)n2)CC1 (stereo not given in full)
Result: 25.5 µM
